Biological target: Stb5 (UniProt P38699)
Sequence: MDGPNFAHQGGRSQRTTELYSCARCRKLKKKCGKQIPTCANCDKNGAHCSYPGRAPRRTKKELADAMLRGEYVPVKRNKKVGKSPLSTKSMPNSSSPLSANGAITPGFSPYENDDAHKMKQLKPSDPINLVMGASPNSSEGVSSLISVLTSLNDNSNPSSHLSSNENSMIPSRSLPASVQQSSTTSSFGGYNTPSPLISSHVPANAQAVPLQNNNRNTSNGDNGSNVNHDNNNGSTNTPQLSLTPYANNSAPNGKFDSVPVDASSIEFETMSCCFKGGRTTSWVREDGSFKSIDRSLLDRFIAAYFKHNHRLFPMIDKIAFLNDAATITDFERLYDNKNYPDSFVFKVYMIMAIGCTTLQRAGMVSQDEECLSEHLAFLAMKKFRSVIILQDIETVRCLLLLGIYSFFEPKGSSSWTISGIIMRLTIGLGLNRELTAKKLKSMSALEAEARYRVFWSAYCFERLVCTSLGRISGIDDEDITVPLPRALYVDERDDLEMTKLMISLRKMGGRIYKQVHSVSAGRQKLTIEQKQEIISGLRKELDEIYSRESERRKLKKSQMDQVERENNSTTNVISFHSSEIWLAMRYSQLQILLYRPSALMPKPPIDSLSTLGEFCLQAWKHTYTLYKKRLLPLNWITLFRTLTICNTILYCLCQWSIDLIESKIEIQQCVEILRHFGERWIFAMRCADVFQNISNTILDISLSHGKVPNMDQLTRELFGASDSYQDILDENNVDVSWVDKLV
Assay: PBM E-score (8-mer binding enrichment) (E-score (-0.5 to 0.5)); higher = stronger / more preferred TF binding
Conditions: protein concentration: 200 nM; construct: GST-full length
In all, about 33,000 sequences were measured (“E-score (-0.5 to 0.5)”: median about -0.054, highest 2% from about 0.35 on). Many of the other results were omitted from the sample, so the highest values are more common in it than they were.
property.measured: PBM E-score
Just the number.

Completed entries (count: 6):
CATTACCG	0.205
ATATCCGG	0.294
CAGCCCGG	0.246
CTTTGACA	-0.135
AATAGCAG	-0.0777
GTCGGAAA	0.274

Continue with the sequence presented below.
query: Name the recorded PBM E-score of CAGAATCC , assay system Stb5 (UniProt P38699).
result: -0.0711
